target: MAP1LC3A, Q9H492; assay: median log2 fold change of GCK-ALFA target abundance (FLAG IP / Myc IP barcode read proportion) (log2 ratio); each designed protein is fused to an ALFA-tag nanobody in HEK293 cells to bring the named protein to FLAG-tagged glucokinase (GCK); Myc marks an untargeted standard; higher = target protein stabilised (more abundant); conditions: target protein: 3xFLAG-MCP-GCK-ALFA reporter; HEK293 landing pad (RPLP)
In all, about 2,300 sequences were measured (“median log2 fold change of GCK-ALFA target abundance (FLAG IP / Myc IP barcode read proportion)”: median about 0.095, lowest 2% from about -0.47 on). For the sample, the lowest values were picked, then their nearest neighbours and some sequences at random.
// reported median log2 fold change per item
Quantity Kind: median log2 fold change

[
  {
    "Binder": "LC3A_132_298 (protein) DEEKAKEILEKVKEKVEEAKENIDNEEKVEELLEEIEELIKEAEEKLSPELLAKVMEEVAELLDELSQKFLEAGKEHLAMLADGLAIEAESLALRAEKEI",
    "Measured Number": -0.0134
  },
  {
    "Binder": "LC3A_free_26_2152 (protein) DIFIDLVELDKAIELLEKALKLLEEDKNASEELKKLVKEALKKAEEMTLESLEEAKKLVEEALKLLEKDKSLSEEKKKELKKLLEEALKLLEKNIEIAKS",
    "Measured Number": 0.192
  },
  {
    "Binder": "LC3A_28_1063 (protein) SKVEAEIKKALAEAKEAVAAGEEALVTITIDDSDSDEDVEKKLKTMEEIAELTKTLPRTTILVDIDSSRKEEISKKVSEVGDKLEKKYPNVTVIIALSEE",
    "Measured Number": 0.0338
  },
  {
    "Binder": "LC3A_free_39_2287 (protein) SEEELEEAVERLEELLEEIEGVSEEEKEIILEAARESLEMAKAILEALEELRRLGGDVAEAAREIAALIRELRAAGASLEERTAAVIEKARDLVNLIPID",
    "Measured Number": 0.257
  },
  {
    "Binder": "LC3A_28_1327 (protein) SELEEQLEKQRKEALELAEKGEDVLIEVTITPETTLEEAEELMEKLRELVKEVAPKVKVSIVVDVEGGVSQEVIDAIAEKADEIEKEYPNATVIIALDED",
    "Measured Number": -0.563
  },
  {
    "Binder": "LC3A_3_1778 (protein) ADELIEELLEALREAGKSEETIEAAREVAERLRERGFDEALETFVREMRRLLDVPDDILLDMLEEVLELLETEDLSEEEVIERIEELARLARAEAEIEEL",
    "Measured Number": -0.0575
  },
  {
    "Binder": "LC3A_free_46_2418 (protein) YRGIVEADLLGLTEEQVEEVIERVKEKAKRLEEEYGVKVEVEVEVEKNEDGTYFLRIKVTIEGEDREKVEKAANEVVDLLEKLADEYGAAMIISIEFEEL",
    "Measured Number": 0.196
  },
  {
    "Binder": "LC3A_free_46_2347 (protein) YKAEIDIDLLAEDEETLKKAVEEIVEAAKKIAKKYNLKVNIEVEIEKLEDGSYYARIKITLEGETKEDVEAAVNELIDEIDKIAKKYNVAAIISYEIIKT",
    "Measured Number": -0.556
  },
  {
    "Binder": "LC3A_28_1027 (protein) SAAEKAIEKAREEARKQKAEGKDIYVTIEVTSSTTLEDAKTIVEGIREIVEEFKDEKNINIIIDVERGVSQEVIDTLADGAEEIEKEYPNVNIIIALEEE",
    "Measured Number": 0.173
  }
]

Taken from the supplement of paper PMC12632987.
